These entries and their values trace back to PubChem BioAssay (NCI).

Quick reference for growth among some molecules
system: HCC-2998 colon; assay: NCI-60 one-dose screen, 48 h (100 = growth as untreated, 0 = no growth, -100 = all killed); settings: 10 µM unless noted
About 83,000 compounds went through this panel and 20% of them were active in at least one assay; those are over-represented in the sample as a whole. Calls of active or inactive are those of the source. How the source made its calls: active means growth percent below 10; inactive means the rest.
valueType: growth

molecule: O=C(NNc1nccc(Nc2ccc(S(=O)(=O)Nc3ccncc3)cc2)n1)c1ccccc1
experimentalTarget: HCC-2998 colon
valueObserved: 21.4% (inactive)
--
molecule: CCc1n(Cc2ccc3ccccc3c2)cc[n+]1Cc1ccc2ccccc2c1
experimentalTarget: HCC-2998 colon
valueObserved: -6.82% (active)
--
molecule: COC1C[C@H](O[C@@H]2C[C@H](O[C@@H]3C[C@H](O[C@@H]4C(=O)c5c(cc6cc(O[C@H]7C[C@@H](O[C@H]8C[C@@H](O)[C@H](O)C(C)O8)[C@H](O)C(C)O7)c(C)c(O)c6c5O)C[C@H]4C(OC)C(=O)[C@@H](O)[C@@H](C)O)OC(C)[C@H]3O)OC(C)[C@@H]2O)OC(C)[C@@H]1O (some centres not stated)
experimentalTarget: HCC-2998 colon
valueObserved: -18.8% (active)
--
molecule: COc1ccc(C(=O)Nc2cccc(C3CC(=O)c4c(cc(OC)c(OC)c4OC)O3)c2)cc1 (configuration not stated)
experimentalTarget: HCC-2998 colon
valueObserved: 64.9% (inactive)
--
molecule: CCCCCCC1(C)NCCO1 (configuration not stated)
experimentalTarget: HCC-2998 colon
valueObserved: 99.2% (inactive)
--
molecule: CC(C)(C)n1cc(-c2ccnc(NCCNS(=O)(=O)c3cccc(F)c3)c2)c(-c2ccccc2)n1
experimentalTarget: HCC-2998 colon
valueObserved: 91% (inactive)
--
molecule: Oc1c(Cl)cc(Cl)cc1/C=N/Nc1nnc(N/N=C/c2cc(Cl)cc(Cl)c2O)c2ccccc12
experimentalTarget: HCC-2998 colon
valueObserved: 33.1% (inactive)
--
molecule: COC(=O)/C(CCC=C(C)C)=C1\[C@@H](OC(C)=O)C[C@@]2(C)[C@H]1C[C@@H](O)[C@H]1[C@@]3(C)CC[C@H](NCCN)[C@@H](C)[C@@H]3CC[C@@]12C
experimentalTarget: HCC-2998 colon
valueObserved: 91.3% (inactive)
--
molecule: O=C(CCc1nnc(Cn2cnc3nc[nH]c3c2=O)o1)c1nc2ncccc2[nH]1
experimentalTarget: HCC-2998 colon
valueObserved: 105% (inactive)
--
molecule: Cn1c(=O)c2c(nc(NC3=NS(=O)(=O)c4ccccc43)n2CC(=O)N2CCc3ccccc32)n(C)c1=O
experimentalTarget: HCC-2998 colon
valueObserved: 96.9% (inactive)
--
molecule: COc1cc(-c2nc3cc(Cl)c(Cl)cc3[nH]2)ccc1OCC(=O)N=Nc1c(O)[nH]c2ccc([N+](=O)[O-])cc12
experimentalTarget: HCC-2998 colon
valueObserved: 71.8% (inactive)
--
molecule: CN([O-])c1nc(N(C)[O-])nc(N2CCOCC2)n1.CN([O-])c1nc(N(C)[OH2+])nc(N2CCOCC2)n1.[Fe+3]
experimentalTarget: HCC-2998 colon
valueObserved: 114% [100 µM] (inactive)

###

Tested on: UACC-257 melanoma
Test: NCI-60 one-dose screen, 48 h
Conditions: 10 µM unless noted
Protocol: Cells are grown in 96 well plates and exposed to the test compound for 48 hours. Compounds are tested at a single concentration, which is 10^-5 M for most compounds. The reported endpoint is percent growth (GI% or GIPRCNT), where numbers from 0 - 100% represent growth inhibition, and numbers from -100% - 0 represent cell death. For example, a value of 40 represents 60% growth inhibition. A value of 0 means no net growth occurred over the course of the experiment. […]
About 83,000 compounds went through this panel and 20% of them were active in at least one assay; those are over-represented in the sample as a whole. Activity calls are given as the source filed them. How the source made its calls: active means growth percent below 10; inactive means the rest.
Possible outcomes: 1.0 for active, 0.0 for inactive

compound: O=C(Nc1cc(Cl)ccc1O)c1ccc(Nc2ccnc(C(F)(F)F)c2)cc1
experimentalTarget: UACC-257 melanoma
label: 0.0
--
compound: O=C1Nc2ccccc2/C1=C\c1nc(-c2ccccc2)n2ccccc12
experimentalTarget: UACC-257 melanoma
label: 0.0
--
compound: COc1ccc2c(O)c(/C=C3\N=Nc4ncccc43)oc2c1C[C@H]1CCNC[C@H]1F
experimentalTarget: UACC-257 melanoma
label: 1.0
--
compound: COC(=O)[C@H]1CCCN1C[C@@H](O)CN1C(=O)/C(=C\c2cc(OC)c(OC)c(OC)c2)c2ccccc21
experimentalTarget: UACC-257 melanoma
label: 0.0
--
compound: O=c1oc2ccc([N+](=O)[O-])cc2cc1Br
experimentalTarget: UACC-257 melanoma
label: 0.0
--
compound: CCCCOC(=O)OCc1cc(=O)c(O)co1
experimentalTarget: UACC-257 melanoma
label: 0.0
--
compound: Cc1ccc(Sc2nnc(/N=C3\C(=O)Nc4ccccc43)s2)cc1
experimentalTarget: UACC-257 melanoma
label: 0.0
--
compound: N#CC1C=CN(CC(N)=O)c2ccc3cccnc3c21 (stereo unspecified)
experimentalTarget: UACC-257 melanoma
label: 0.0
--
compound: O=C(O)CNC1=C(Cl)C(=O)c2ccccc2C1=O
experimentalTarget: UACC-257 melanoma
label: 0.0
--
compound: O=C(CSc1nc2sc3c(c2c(=O)n1-c1ccccc1)CCCCC3)N/N=C/c1ccc(F)cc1
experimentalTarget: UACC-257 melanoma
label: 0.0
--
compound: Cc1ccccc1/C=C1\CN(C(=O)OC(C)(C)C)C/C(=C\c2ccccc2C)C1=O
experimentalTarget: UACC-257 melanoma
label: 0.0
